assay: Human HepG2 cell viability assay in 384 well format
Type: toxicity, cell-based
Parameters: dose 125 nL, time 70.5 hour; concentration not given beside the values
run.conditions: HepG2 cells, read-out: Inhibition
Recorded cytotoxicity at 70.5 h for the following compounds
Kindly answer with a numeric value in %, unit omitted.

// solved cases for cytotoxicity at 70.5 h follow
>>> number("CN1CCOC(CNC(=O)COc2ccc(F)cc2F)C1 (configuration not stated)")
0.568
>>> number("Cn1cnc2c1CCN(Cc1nc(-c3ccco3)no1)C2")
8.47
>>> number("Cc1nc(C)n(CC2CCCCN2Cc2cscn2)n1 (configuration not stated)")
-5.99
>>> number("Cc1cccc(NC(=O)N2CCC3(CCC(C(=O)N(C)C)O3)CC2)c1 (configuration not stated)")
-11.4
>>> number("COC(=O)NCCCC(=O)NCC1(c2cccc(Cl)c2)CC1")
20.6
>>> number("CCOCCOC(C)C(=O)Nc1ccc2ccn(CC(=O)NC)c2c1 (configuration not stated)")
-13.2
>>> number("Cc1nn(C)c(C)c1C1CCCN1CC(=O)Nc1nccs1 (configuration not stated)")
-0.764
>>> number("CC(=O)N1CCCC1c1nnc2n1CCCCC2 (configuration not stated)")
2.96

Entry under review: O=C(Cn1cc(Cl)cn1)Nc1ccc2c(c1)OCCCO2 . Reported cytotoxicity at 70.5 h?
25.9

Which cytotoxicity at 70.5 h reading was recorded for the compound Nc1nccnc1C(=O)N(Cc1ccco1)CC1CCCO1 (configuration not stated) ?
-2.09

Requested field: cytotoxicity at 70.5 h. Item: Cc1noc(C(C)C)c1C(=O)NCC(c1cccc(F)c1)N(C)C (configuration not stated)
-21.3

May I ask what cytotoxicity at 70.5 h has been recorded for Cc1csc2c(=O)n(C(C)Cc3cccnc3)cnc12 (configuration not stated) ?
-9.53

----------
assay: Human HepG2 cell viability assay in 384 well format
Assay type: toxicity, cell-based
Parameters: dose 125 nL, time 70.5 hour; concentration not given beside the values
run.conditions: HepG2 cells, read-out: Inhibition
Known cytotoxicity at 70.5 h of a selection of compounds
Numbers only here, please. The scale is %.

>>> number("CCn1nc(CC(C)C)cc1C(=O)N1CCCOC(CN2CCCC2)C1 (stereo not drawn)")
-3.36
>>> number("O=C(C1CCC1)N1CCC2(CCN(Cc3cccc(F)c3)CC2)CC1")
18.6
>>> number("O=C(O)[C@]12CCCN(Cc3ccsc3)C[C@H]1CN(c1ncccn1)C2")
1.99
>>> number("Cc1nc(C(=O)Nc2cccnc2)c(C(C)C)s1")
-6.88
>>> number("COCCN(C)CC1CCCN1S(=O)(=O)Cc1ccccc1F (stereo not drawn)")
13.2

Please give the measured cytotoxicity at 70.5 h for this compound: O=C(c1cscn1)N1CCC(Cn2cc(-c3ccsc3)nn2)CC1
-8.02

Look up cytotoxicity at 70.5 h for this compound: O=C(c1ccc2[nH]ccc2c1)N1CCn2cc(CN3CCCC3)nc2C1
-13.7

Given the compound CN(C)CC(=O)N1CCc2sc(C(=O)NCC3CC3)cc21 , what is its reported cytotoxicity at 70.5 h?
-12.2

Which cytotoxicity at 70.5 h is reported for this compound? Cc1ncc(-c2ccnc(NCCO)n2)c(C2CCCCC2)n1
21.9

Quick one: cytotoxicity at 70.5 h for CN(C)[C@@H]1CN(C(=O)Cc2ccccc2)[C@@H]2CCCO[C@H]12 ?
15.5

Look up cytotoxicity at 70.5 h for this compound: Cc1ccc(CN2CC[C@@H](N(C)C(C)C)[C@@H]2Cc2ccccc2)o1
2.54

For the compound Cc1cc(C)nc(N2CCOC(c3cc(CCO)[nH]n3)C2)n1 (stereo not drawn) , what cytotoxicity at 70.5 h is on record?
-8.46

Consider the compound CC(NC(=O)CCn1cccn1)c1cn(-c2ccccc2)nn1 (stereo not drawn) and give its measured cytotoxicity at 70.5 h.
-5.23

Please give the measured cytotoxicity at 70.5 h for this compound: CSc1ncccc1C(=O)N1CCC(c2nc3c(C)cccc3[nH]2)CC1
12.8

Fill in: cytotoxicity at 70.5 h of COc1ccccc1C(C)(C)NCc1ccco1 is ___
-19.1

Return reported cytotoxicity at 70.5 h; argument: CCCc1ccc(CN2CCN(C(=O)NCC)[C@H]3CS(=O)(=O)C[C@H]32)o1
-15.3
